Taken from paper PMC5454392.

Reported binding score values are given for each entry in this list.
Target: T1, CaBdf1 BD1 (GST-tagged, wild-type) (Candida albicans (strain SC5314 / ATCC …, UniProt Q5A4W8))
T1 chain: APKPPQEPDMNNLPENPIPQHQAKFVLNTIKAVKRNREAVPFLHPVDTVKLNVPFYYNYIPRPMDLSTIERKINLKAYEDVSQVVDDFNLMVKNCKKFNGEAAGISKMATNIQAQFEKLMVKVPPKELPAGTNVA
Test: histone peptide array (Active Motif MODified), 1 uM GST-tagged bromodomain, anti-GST detection, normalized mean intensity
Square brackets hold non-standard residues; d marks the D form. Ends that are not written are not given here. Arg(Me2a) = CN(C)C(=N)NCCC[C@H](N)C(=O)O; Arg(Me2s) = CN=C(NC)NCCC[C@H](N)C(=O)O; pS = N[C@@H](COP(=O)(O)O)C(=O)O; Lys(Me) = CNCCCC[C@H](N)C(=O)O; Me2a = not defined here
EXPERIMENTAL_READOUT: binding score

A[Arg(Me2s)]TK(Ac)QTA[Arg(Me2a)][Lys(Me)]STGGKAPRKQ = 0.00834
PRKQLATKAARK(Me)SAPATGG = 0.00798
PDPAKSAPAPKKGSK(Ac)KAVT [H2B 1-19] = 0.0199
PRKQLATKAAR(Me2a)K(Me3)[pS]APATGG (reading uncertain) = 0.00218
PRKQLATKAARKSAPATGG (P R K Q L A T K A A R Kme2 S A P A T G G) = 0.00254
ARTKQTARKSTGGKAPRKQ (A Rme2s T Kme2 Q T A Rme2s Kme2 S T G G K A P R K Q) = 0.00435
ARTKQTARKSTGGKAPRKQ (A Rme2s T Kme3 Q T A Rme2s Kme1 S T G G K A P R K Q) = 0.00363
ARTKQTARKSTGGKAPRKQ (A Rme2a T Kme1 Q T A Rme2a Kme1 S T G G K A P R K Q) = 0.00363
ARTKQTARKSTGGKAPRKQ (A R T K Q T A R Kme2 S T G G Kac A P R K Q) = 0.0315
AR(Me2s)TK(Ac)QTARKSTGGKAPRKQ = 0.00616
SGRGKGGKGLGKGGAKRHR (S G R G K G G K G L G Kac G G A Kac R H R) [H4 1-19] = 0.0743
